Attribution: the supplement of paper PMC8728848

- subjectOfTest: Gal(b1-4)GlcNAc(b1-3)Gal(b1-4)GlcNAc(b1-2)Man(a1-3)[Gal(b1-4)GlcNAc(b1-3)Gal(b1-4)GlcNAc(b1-2)Man(a1-6)]Man(b1-4)GlcNAc(b1-4)[Fuc(a1-6)]GlcNAc
- assayProtocol: glycan array binding signal (z-score within array); higher = stronger binding
- assayContext: glycan notation: IUPAC condensed, linker removed
Many of the other results were omitted from the sample, so the strongest signals are more common in it than they were.

>  <binder>
MAA (Maackia amurensis), P0DKL3 (protein) MATSNSKPTQVLLATFLTFFFLLLNNVNSSDELSFTINNFVPNEADLLFQGEASVSSTGVLQLTRVENGQPQKYSVGRALYAAPVRIWDNTTGSVASFSTSFTFVVKAPNPDITSDGLAFYLAPPDSQIPSGSVSKYLGLFNNSNSDSSNQIVAVELDTYFAHSYDPWDPNYRHIGIDVNGIESIKTVQWDWINGGVAFATITYLAPNKTLIASLVYPSNQTTFSVAASVDLKEILPEWVRVGFSAATGYPTEVETHDVLSWSFTSTLEANCDAATENNVHIARYTA

>  <glycan array binding signal (z-score)>
0.122

$$$$
